# Run Conditions: in water, 292.2 K
Parameter Measured: solubility (mole fraction)
The answer should be written as a number, with no unit following it.

So what does the record say about solubility (mole fraction) for `Cc1ccc(S(=O)(=O)[O-])cc1Cl.[Na+]` ?
0.0053

----------
# Run Conditions: in DMF, 304.8 K
Parameter Measured: solubility (mole fraction)
The answer should be written as a number, with no unit following it.

So what does the record say about solubility (mole fraction) for `Cc1ccc(S(=O)(=O)[O-])cc1Cl.[Na+]` ?
0.0216
